# conditionLabel: 100.0 µM
Would you mind telling me the reported relative solubility at 100 uM of each entry?

# input // returns reported relative solubility at 100 uM for input Cc1ccncc1NC(=O)[C@@H]1C[C@H]1CF (stereo in doubt)
# output 1

# input Entry to check: O=C(NC(Cc1ccccc1)C(=O)NCc1ccno1)OCc1ccccc1 (stereo not given)
# output 0.85

# input Consider next the molecule CN(C)C/C=C/C(=O)NCc1c[nH]c2ccccc12 in the same way.
# output 0.98

# input And the next one, C=CC(=O)N(c1ccc(N(C)C)c(C)c1)C(C(=O)Nc1ccc(Br)cc1)c1cccnc1 (stereo not given) ?
# output 0.74

# input Param item: O=C(Nc1ccccc1OC1CCN(Cc2ccccc2)CC1)C1CCN(C(=O)CCl)CC1
# output 0.95

# input And the next one, Cn1cc(S(N)(=O)=O)cc1CC(=O)Nc1cccc(C(=O)NCc2ccccn2)c1 ?
# output 1

# input What would you report for CNC(=O)OC1CCN(C(=O)c2ccncc2)CC1 ?
# output 1

# input What about this molecule? O=C1CC[C@H](C(=O)Nc2cccc(Br)c2)N1 (stereo in doubt)
# output 1

# input What would you report for O=C(NCc1cccc(C(=O)N2CCOCC2)c1)c1cnc2c(c1)c(=O)[nH]c(=O)n2Cc1ccccc1 ?
# output 0.9

# input Would you kindly repeat that for CN1CCC(C(=O)NC2CCCCC2NC(=O)C2CCCCC2)CC1 (stereo not given) ?
# output 1.01

* * *

Would you mind telling me the reported IC50 of each entry?
# measuredOn: SARS-CoV-2 Main Protease (SARS-CoV-2) (UniProt P0DTD1)
Just the number please, in µM, no unit attached.

# input # IC50 lookup, item NS(=O)(=O)c1ccc2c(c1)CN(CC1CCN(C(=O)CCl)CC1)CC2
# output 31.2

# input Request: O=C1Nc2ccc(OCCF)cc2C1=O
# output 45.2

# input Entry to check: C=CC(=O)N(c1ccc(C(F)(F)F)cc1)C(C(=O)NCCc1cccc(F)c1)c1cncc(C#N)c1 (stereo not given)
# output 3.01

# input Param item: Cc1ccncc1NC(=O)Cc1cc(Cl)cc(-c2ccc(C3(C)CCO3)cc2)c1 (stereo not given)
# output 15.3

# input Entry to check: CC(=O)NCCc1c[nH]c2c(CN3CCN(C(=O)CCl)CC3)cccc12
# output 11.5

* * *

# measuredOn: SARS-CoV-2 Main Protease (SARS-CoV-2) (UniProt P0DTD1)
# conditionLabel: 50.0 µM
metric: inhibition
Answers without a unit are incomplete; give the number and then its unit.

# input Find the recorded inhibition belonging to Cc1nc(-c2cccc(CNC(=O)Nc3cccc(CN4CCCC4=O)c3)c2)n[nH]1 and report it.
# output 2.95%

# input Query C=CC(=O)N(c1ccc(C(C)(C)C)cc1)C(C(=O)NC1CC1)c1cccnc1 (configuration not stated) next
# output 33%

# input Next: Cc1ccc(OCCN2C(=O)C(=O)c3cccc(Cl)c32)cc1
# output 5.65%

# input Field entry: O=C(Cc1ccccc1OC1CCOC1)OCc1cnn[nH]1 (configuration not stated)
# output 20.7%

# input Follow-up item: Cc1ccncc1NC(=O)C[C@H](c1ccccc1)N1CCC(O)CC1 (stereo in doubt)
# output 34.5%

# input // next record O=C(NCc1cccnn1)Nc1cccc(N2CCC2=O)c1
# output 6.82%

# input # repeat for Cc1[nH]c2ccccc2c1/C=N/N(C)C(=O)c1ccc2c(c1)OCO2
# output -13.4%

# input Could you do the same for COC(=O)C(c1ccccc1Cl)N1CCC(S)/C(=C/C(=O)O)C1 (configuration not stated) , please?
# output 1.77%

# input For C=CC(=O)N(c1ccc(C(C)(C)C)cc1)C(C(=O)NC(C)CC)c1cccnc1 (configuration not stated) then?
# output 32.5%

# input And the next one, C=CC(=O)N(c1cc(C(C)(C)C)n[nH]1)C(C(=O)Nc1c(C)cccc1CC)c1cccnc1 (configuration not stated) ?
# output 4.71%

# input Subsequent entry: C=CC(=O)N(c1ccc(C2(C)CC2)cc1)C(C(=O)Nc1cccc(F)c1C)c1cccnc1 (configuration not stated)
# output 34.7%

# input Similarly, Cc1cccc(NC(=O)C(C#N)C(=O)C2CCCC2)c1 (configuration not stated) ?
# output -8.28%

# input Now consider Cc1ccncc1CC(=O)Nc1cccc2c1CNCC2 .
# output 2.76%

# input Try this compound too: C=CC(=O)N(c1ccc(C(C)(C)C)cc1)C(C(=O)NC(C)(C)C)c1cncc2ccccc12 (configuration not stated)
# output -17.5%

# input Likewise for O=C(CC1(c2ccccc2)CCCC1)Nc1cccnc1 ?
# output 3.98%

# input And the next one, Cc1ccncc1-c1ccc(S(N)(=O)=O)cc1 ?
# output 8.58%

# input Can you check C=CC(=O)N(c1ccc(SC)cc1)C(C(=O)NC(C)(C)C)c1cccnc1 (configuration not stated) next?
# output 7.75%

# input Entry to check: C=CC(=O)N(C1CCC2(CCCC2)CC1)C(C(=O)NC(C)(C)C)c1cccnc1 (configuration not stated)
# output 6.94%

# input // repeat for Nc1n[nH]c2cc(O)nc(O)c12 and report
# output 30.9%

# input And N#Cc1ccc(CN2C(=O)C(=O)c3cccc(Br)c32)c(F)c1 ?
# output -0.391%

# input What do we get for CS(=O)(=O)Nc1cccc(C(=O)Nc2cccc(N3CCCC3=O)c2)c1 ?
# output 5.19%

# input Then this compound: NS(=O)(=O)c1ccc(N2CCC(Nc3ccc(F)cc3)CC2)cc1
# output 8.08%

Source listed as the COVID Moonshot data (paper PMC11187573).
